Provenance of the data: patent US8198456B2

Biological target: recombinant human c-MET kinase enzyme domain (Homo sapiens, UniProt P08581)
Construct: Recombinant c-Met kinase domain (amino acids 960-1390); His (N); SF21 is named only for the alternative format)
Sequence (P08581 960-1390): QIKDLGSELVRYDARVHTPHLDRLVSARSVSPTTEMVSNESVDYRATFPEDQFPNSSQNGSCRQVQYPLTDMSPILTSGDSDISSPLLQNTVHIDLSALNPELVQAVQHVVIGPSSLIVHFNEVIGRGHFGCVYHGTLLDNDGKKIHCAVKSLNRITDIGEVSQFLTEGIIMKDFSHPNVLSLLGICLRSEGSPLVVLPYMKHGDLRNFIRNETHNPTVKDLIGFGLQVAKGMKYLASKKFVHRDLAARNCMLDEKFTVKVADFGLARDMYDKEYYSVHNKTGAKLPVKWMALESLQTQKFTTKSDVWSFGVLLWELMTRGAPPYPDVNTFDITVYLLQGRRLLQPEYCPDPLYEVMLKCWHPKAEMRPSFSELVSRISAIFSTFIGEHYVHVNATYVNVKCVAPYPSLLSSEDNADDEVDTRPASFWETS
Test: c-MET receptor tyrosine kinase Homogeneous Time Resolved Fluorescence assay (HTRF)
Conditions: Biological Example 1 and/or Biological Example 2
MEASURED PARAMETER: IC50

{"MOLECULAR STRING": "COC(=O)c1n[nH]c2ccc(C3C(C#N)=C(C)NC(C)=C3C#N)cc12", "IC50": "500 to 2500 nM"}
{"MOLECULAR STRING": "CC1=C(C#N)C(c2ccc3[nH]nc(CO)c3c2)C(C#N)=C(C)N1", "IC50": "< 100 nM"}
{"MOLECULAR STRING": "CC1=C(C#N)C(c2ccc3[nH]nc(-c4ccon4)c3c2)C(C#N)=C(C)N1", "IC50": "< 100 nM"}
{"MOLECULAR STRING": "CCN(CC)CC(=O)Nc1n[nH]c2ccc(C3C(C#N)=C(C)NC(C)=C3C#N)cc12", "IC50": "500 to 2500 nM"}
{"MOLECULAR STRING": "CC(=O)c1n[nH]c2ccc(C3C(C#N)=C(C)NC(C)=C3C#N)cc12", "IC50": "< 100 nM"}
{"MOLECULAR STRING": "COC(=O)c1cccc(C2C(C#N)=C(C)N(C)C(C)=C2C#N)c1", "IC50": "500 to 2500 nM"}
{"MOLECULAR STRING": "COc1cccc(-c2n[nH]c3ccc(C4C(C#N)=C(C)NC(C)=C4C#N)cc23)c1", "IC50": "100 to 500 nM"}

Here is the next item to consider.
Consider the molecule CC1=C(C#N)C(c2ccc3c(c2)c(N)nn3C(=O)c2ccccc2)C(C#N)=C(C)N1 . State its measured IC50.
< 100 nM

====

Target: recombinant human c-MET kinase enzyme domain (Homo sapiens, UniProt P08581)
Construct: Recombinant c-Met kinase domain (amino acids 960-1390); His (N); SF21 is named only for the alternative format)
Assay: c-MET receptor tyrosine kinase Homogeneous Time Resolved Fluorescence assay (HTRF)
Conditions: Biological Example 1 and/or Biological Example 2
Text: Recombinant c-Met kinase domain (amino acids 960-1390) was produced in a baculovirus expression vector as an N-terminal His-tagged fusion protein and purified on a NiNTA column. The resulting purified enzyme was then used in the following c-Met Homogeneous Time Resolved Fluorescence assay (HTRF) to find compounds of the invention and to perform initial activity determinations. […]
pIC50: −log10 of the molar value. Counter-ions that a name gives are not always drawn.
MEASURED PARAMETER: pIC50

Consider the compound COC(=O)c1cccc(C2C(C#N)=C(C)NC(c3ccc([N+](=O)[O-])cc3)=C2C#N)c1 (stereo not shown) . State its measured pIC50.
5.60 to 6.30

Consider the compound CC1=C(C#N)C(c2ccc3[nH]ncc3c2)C(C#N)=C(c2ccnc(NCCN3CCOCC3)c2)N1 (stereo not shown) . State its measured pIC50.
> 7.00

Consider the compound CC1=C(C#N)C(c2ccc3[nH]nc(-c4ccccn4)c3c2)C(C#N)=C(C)N1 . State its measured pIC50.
> 7.00

Consider the compound CCCN1CCN(c2n[nH]c3ccc(C4C(C#N)=C(C)NC(C)=C4C#N)cc23)CC1 [165.1, TFA salt] . State its measured pIC50.
> 7.00

Consider the compound CC1=C(C#N)C(c2cccc(C(=O)NCCCn3ccnc3)c2)C(C#N)=C(C)N1 . State its measured pIC50.
6.30 to 7.00

Consider the compound CC1=C(C#N)C(c2ccc3[nH]nc(C)c3c2)C(C#N)=C(C)N1C1CC1 . State its measured pIC50.
> 7.00

Consider the compound CC1=C(C#N)C(c2ccc3[nH]nc(Cl)c3c2)C(C#N)=C(C)N1 . State its measured pIC50.
> 7.00

====

Molecular target: recombinant human c-MET kinase enzyme domain (Homo sapiens)
Construct: Recombinant c-Met kinase domain (amino acids 960-1390); His (N); SF21 is named only for the alternative format)
Experiment: c-MET receptor tyrosine kinase Homogeneous Time Resolved Fluorescence assay (HTRF)
Details: Biological Example 1 and/or Biological Example 2
MEASURED PARAMETER: IC50

Use the examples below as a reference point.
{"COMPOUND": "CC1=C(C#N)C(c2ccc3[nH]nc(N)c3c2)C(C#N)=C(c2ccccc2)N1 (stereo not drawn)", "IC50": "< 100 nM"}
{"COMPOUND": "CC1=C(C#N)C(c2ccc3[nH]nc(C(=O)NCCN4CCCC4)c3c2)C(C#N)=C(C)N1", "IC50": "< 100 nM"}
{"COMPOUND": "CCOCCCNC(=O)c1cccc(C2C(C#N)=C(C)NC(C)=C2C#N)c1", "IC50": "500 to 2500 nM"}
{"COMPOUND": "COC(=O)c1cccc(C2C(C#N)=C(C)NC(C3CCCN(C(N)=O)C3)=C2C#N)c1 (stereo not drawn)", "IC50": "100 to 500 nM"}
{"COMPOUND": "COC(=O)Nc1cccc(C2C(C#N)=C(C)NC(C)=C2C#N)c1", "IC50": "500 to 2500 nM"}

Consider the compound CNC(=O)Nc1n[nH]c2ccc(C3C(C#N)=C(C)NC(C)=C3C#N)cc12 . State its measured IC50.
< 100 nM

====

Known pIC50 of a selection of compounds
Target: recombinant human c-MET kinase enzyme domain (Homo sapiens, UniProt P08581)
Construct: Recombinant c-Met kinase domain (amino acids 960-1390); His (N); SF21 is named only for the alternative format)
Experiment: c-MET receptor tyrosine kinase Homogeneous Time Resolved Fluorescence assay (HTRF)
Conditions: Biological Example 1 and/or Biological Example 2
pIC50: −log10 of the molar value.

{"COMPOUND": "CC1=C(C#N)C(c2ccc3[nH]nc(I)c3c2)C(C#N)=C(C)N1", "MEASUREMENT TARGET": "recombinant human c-MET kinase enzyme domain (Homo sapiens, UniProt P08581)", "pIC50": "> 7.00"}
{"COMPOUND": "CCNc1n[nH]c2ccc(C3C(C#N)=C(C)NC(C)=C3C#N)cc12", "MEASUREMENT TARGET": "recombinant human c-MET kinase enzyme domain (Homo sapiens, UniProt P08581)", "pIC50": "> 7.00"}

Consider the compound CC1=C(C#N)C(c2cnc3[nH]ncc3c2)C(C#N)=C(C)N1 . State its measured pIC50.
> 7.00

Consider the compound CC1=C(C#N)C(c2ccc3[nH]ncc3c2)C(C#N)=C(c2ccc(CO)cc2)N1 (stereo not drawn) . State its measured pIC50.
> 7.00

Consider the compound CC1=C(C#N)C(c2ccc3[nH]nc(C(F)(F)F)c3c2)C(C#N)=C(C)N1 . State its measured pIC50.
5.60 to 6.30

Consider the compound CC(=O)Nc1cccc(C2=C(C#N)C(c3ccc4[nH]ncc4c3)C(C#N)=C(C)N2)c1 (stereo not drawn) . State its measured pIC50.
> 7.00

Consider the compound CC1=C(C#N)C(c2cccc(C(N)=O)c2)C(C#N)=C(C)N1 . State its measured pIC50.
5.60 to 6.30

Consider the compound CC1=C(C#N)C(c2cccc(C(=O)Nc3ccc(CO)cn3)c2)C(C#N)=C(C)N1 . State its measured pIC50.
6.30 to 7.00

Consider the compound CC1=C(C#N)C(c2ccc3[nH]nc(Cl)c3c2)C(C#N)=C(C)N1CCO . State its measured pIC50.
> 7.00

====

Biological target: recombinant human c-MET kinase enzyme domain (Homo sapiens)
Construct: Recombinant c-Met kinase domain (amino acids 960-1390); His (N); made in house; host or cells: baculovirus expression system (insect cells; SF21 is named only for the alternative format)
Test: c-MET receptor tyrosine kinase Homogeneous Time Resolved Fluorescence assay (HTRF)
Assay type: biochemical
Conditions: Biological Example 1 and/or Biological Example 2
Known IC50 of a selection of molecules

{"MOLECULE": "CC1=C(C#N)C(c2cccc(C(=O)Nc3cccc(C)n3)c2)C(C#N)=C(C)N1 [compound 62]", "IC50": "500 to 2500 nM"}

Consider the molecule CC1=C(C#N)C(c2cccc(C(=O)Nc3cccnc3)c2)C(C#N)=C(C)N1 [compound 21] . State its measured IC50.
100 to 500 nM

Consider the molecule CC1=C(C#N)C(c2ccc3[nH]ncc3c2)C(C#N)=C(C2CCCN(C(=O)OCc3ccccc3)C2)N1 (stereo not shown) [compound 251] . State its measured IC50.
500 to 2500 nM

Consider the molecule CC1=C(C#N)C(c2ccc3[nH]nc(/C(C)=N/O)c3c2)C(C#N)=C(C)N1 [compound 160] . State its measured IC50.
< 100 nM

====

Biological target: recombinant human c-MET kinase enzyme domain (Homo sapiens, UniProt P08581)
Construct: Recombinant c-Met kinase domain (amino acids 960-1390); His (N); SF21 is named only for the alternative format)
Experiment: c-MET receptor tyrosine kinase Homogeneous Time Resolved Fluorescence assay (HTRF)
Conditions: Biological Example 1 and/or Biological Example 2
MEASURED PARAMETER: IC50

{"COMPOUND": "COC(c1cccnc1)n1nc(N)c2cc(C3C(C#N)=C(C)NC(C)=C3C#N)ccc21 (stereo not shown)", "ASSAY VALUE": "100 to 500 nM"}
{"COMPOUND": "CC1=C(C#N)C(c2ccc3c(c2)c(NCCO)nn3C(=O)OC(C)(C)C)C(C#N)=C(C)N1", "ASSAY VALUE": "< 100 nM"}
{"COMPOUND": "CC1=C(C#N)C(c2ccc3[nH]nc(NCc4ccc(N5CCOCC5)cc4)c3c2)C(C#N)=C(C)N1", "ASSAY VALUE": "< 100 nM"}
{"COMPOUND": "CC1=C(C#N)C(c2ccc3[nH]nc(-c4cnn(C)c4)c3c2)C(C#N)=C(C)N1", "ASSAY VALUE": "< 100 nM"}
{"COMPOUND": "CC1=C(C#N)C(c2ccc3[nH]nc(Cl)c3c2)C(C#N)=C(C)N1C", "ASSAY VALUE": "< 100 nM"}
{"COMPOUND": "CC1=C(C#N)C(c2ccc3[nH]ncc3c2)C(C#N)=C(c2ccccc2)N1 (stereo not shown)", "ASSAY VALUE": "< 100 nM"}
{"COMPOUND": "CC1=C(C#N)C(c2ccc3[nH]nc(-c4cccnc4)c3c2)C(C#N)=C(C)N1", "ASSAY VALUE": "< 100 nM"}
{"COMPOUND": "COC(=O)c1cccc(C2C(C#N)=C(C)NC(c3ccc(O)cc3)=C2C#N)c1 (stereo not shown)", "ASSAY VALUE": "100 to 500 nM"}

Consider the compound COC(=O)c1cccc(C2C(C#N)=C(C)NC(C3CCCN(C(C)=O)C3)=C2C#N)c1 (stereo not shown) . State its measured IC50.
100 to 500 nM

Consider the compound COC(=O)c1cccc(C2C(C#N)=C(C)NC(c3ccccc3)=C2C#N)c1 (stereo not shown) . State its measured IC50.
< 100 nM
